# EXPERIMENTAL_TARGET: recombinant Pseudomonas aeruginosa PcrV, full-length (PAO), His-tagged (Pseudomonas aeruginosa)
# ASSAY: BLI
ASSAY_METRIC: Kd (nM)
Kindly answer with a numeric value in nM, unit omitted.

# BINDER, ASSAY_METRIC, OBSERVED_VALUE
data = [
    ("3A9 (antibody, V domains shown, also called optimized anti-PcrV mAb clone 3A9) VH: EVQLLESGGGLVQPGGSLRLSCTASGFTFSDYSMSWVRQAPGKGLDWVSGISESGGSTNYADSVKGRFSTSRDNSKSTLYLDMNSLRAEDTAIYYCAKGRFSDSTKHFFRAVYGMDVWGQGTAVTVSS VL: DIQLTQSPSSLSASVGDRVTITCRASQGISSYLAWYQQKPGKAPKLLIYAASTLQSGVPSRFSGSGSGTDFTLTISSLQPEDFATYYCQQLSSYPLSFGGGTKVEIK", "Kd", 0.533),
]

Attention now shifts to the item below.
Q: Complete the entry with Kd for 3H10 (antibody, V domains shown, also called optimized anti-PcrV mAb clone 3H10) VH: EVQLLESGGGLVQPGGSLRLSCTASGFTFSDYPMSWVRQAPGKGLDWVSGISESGGSTNDADSVKGRFSTSRDNSKSTLYLDMNSLRAEDTAIYYCAKGRFSDYSQHFFRAVYGMDVWGQGTAVTVSS VL: DIQLTQSPSSLSASVGDRVTITCRASQGISSYLAWYQQKPGKAPKLLIYAASTLQSGVPSRFSGSGSGTDFTLTISSLQPEDFATYYCQQLNSYPLTFGGGTKVEIK
A: 0.779
